Attribution: patent US11447486B2

Target: human 5-LOX (Homo sapiens)
Construct: purchased Cayman 60402; host or cells: insect cells (lysate)
Sequence (P09917 1-674): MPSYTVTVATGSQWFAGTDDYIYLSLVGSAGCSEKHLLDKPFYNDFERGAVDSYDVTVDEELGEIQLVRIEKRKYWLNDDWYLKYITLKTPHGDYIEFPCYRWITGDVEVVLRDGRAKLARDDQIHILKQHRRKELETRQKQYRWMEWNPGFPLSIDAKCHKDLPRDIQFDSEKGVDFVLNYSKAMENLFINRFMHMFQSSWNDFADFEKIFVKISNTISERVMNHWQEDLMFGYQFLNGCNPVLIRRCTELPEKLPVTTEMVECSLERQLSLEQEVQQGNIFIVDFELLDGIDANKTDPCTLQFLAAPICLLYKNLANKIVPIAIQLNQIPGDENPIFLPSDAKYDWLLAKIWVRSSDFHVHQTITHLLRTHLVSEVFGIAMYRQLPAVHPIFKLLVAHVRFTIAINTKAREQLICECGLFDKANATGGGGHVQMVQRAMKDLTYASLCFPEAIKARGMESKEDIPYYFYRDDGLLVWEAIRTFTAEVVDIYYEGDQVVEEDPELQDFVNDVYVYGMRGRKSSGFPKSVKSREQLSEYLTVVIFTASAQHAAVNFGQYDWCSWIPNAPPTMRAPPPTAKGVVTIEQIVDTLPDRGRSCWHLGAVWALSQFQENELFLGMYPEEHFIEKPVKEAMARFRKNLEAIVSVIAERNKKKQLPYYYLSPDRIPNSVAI
Assay: 5-LOX enzyme activity, fluorescence method (5-HPETE, H2DCFDA)
Type: biochemical
Settings: read-out: 5-LO (IC50)
Measured quantity: IC50

Example results:
[
  {
    "Compound": "CCn1c(NCc2ccc(Oc3ncc(OC(F)(F)F)cn3)cc2)nc2ccc(Nc3cc(C(F)(F)F)n(C)n3)cc21 [Compound 545]",
    "IC50": "1000 to 10000 nM"
  },
  {
    "Compound": "Cn1c(NCc2ccc(Oc3ccc(Cl)cc3)cc2)nc2ccc(NC3COC3)cc21 [Compound 184]",
    "IC50": "< 1000 nM"
  },
  {
    "Compound": "Cn1c(NCc2ccc(Oc3ccc(Cl)cn3)cc2)nc2c(F)cc(NC3COC3)cc21 [Compound 553]",
    "IC50": "< 1000 nM"
  },
  {
    "Compound": "Cn1c(NCc2ccc(Oc3ncc(Br)cn3)cc2)nc2ccc(N)cc21 [Compound 361]",
    "IC50": "< 1000 nM"
  },
  {
    "Compound": "Cn1c(NCc2ccc(Oc3ncc4ccc(Cl)cc4n3)cc2)nc2ccc(N)cc21 [Compound 440]",
    "IC50": "< 1000 nM"
  },
  {
    "Compound": "Cn1c(NCc2ccc(Oc3ncc(Cl)cc3F)cc2)nc2ccc(NC3COC3)cc21 [Compound 324]",
    "IC50": "< 1000 nM"
  },
  {
    "Compound": "CCn1c(NCc2ccc(Oc3ncc(C(F)(F)F)cn3)cc2)nc2ccc(Nc3n[nH]c(C)c3Cl)cc21 [Compound 516]",
    "IC50": "> 10000 nM"
  }
]

Now for a further compound.
Value of IC50 reported for the compound Cn1c(NCc2ccc(COc3ccc(Cl)cn3)cc2)nc2ccc(N)cc21 [Compound 304] is < 1000 nM
